Reference source for all entries: ChEMBL document CHEMBL3885861

- Organism: Rattus norvegicus
- run-description: Open TG-GATES - Regimen: Daily Repeat
- Format: toxicity, organism-based, Sprague-Dawley
- Set-up: regimen Daily Repeat, gender Male, age 6 weeks
- measurement-conditions: in vivo, po, 1000 mg/kg, 72 h, tissue Plasma, route gavage, dose level High, time 3 day
measure: TP (g/dL)
Report the value in g/dL with no unit label.

# annotated cases, reported TP shown
| compound | TP / g/dL |
| --- | --- |
| CCCCNC(=O)NS(=O)(=O)c1ccc(C)cc1 [TOLBUTAMIDE] | 5.5 |
| O=C(O)c1ccccc1Nc1ccccc1 | 5.3 |
| CC(=O)[C@@]1(O)CC[C@H]2[C@@H]3C=C(Cl)C4=CC(=O)CC[C@]4(C)[C@H]3CC[C@@]21C | 6 |

Give its TP value. Item: CC(S)C(=O)NCC(=O)O (centres undefined)
5.2

###

- Species: Rattus norvegicus
- run-description: Open TG-GATES - Regimen: Daily Repeat
- Format: toxicity, organism-based, Sprague-Dawley
- Design: regimen Daily Repeat, gender Male, age 6 weeks
- measurement-conditions: in vivo, po, 0 mg/kg, […], tissue Blood, route gavage, dose level Control, time 7 day
Some compounds, each annotated with its measured PT.
Report the value in s with no unit label.

| compound | unit-spec | value-reported |
| --- | --- | --- |
| COc1ccc([C@@H]2Sc3ccccc3N(CCN(C)C)C(=O)[C@@H]2OC(C)=O)cc1 [DILTIAZEM] | s | 14.2 |

Give its PT value. Item: CN(C/C=C/C#CC(C)(C)C)Cc1cccc2ccccc12 [TERBINAFINE]
11.7

Give its PT value. Item: NS(=O)(=O)c1cc(C(=O)O)c(NCc2ccco2)cc1Cl [FUROSEMIDE]
15.5

Give its PT value. Item: CCO [ALCOHOL]
11.1

Give its PT value. Item: CCCCNC(=O)NS(=O)(=O)c1ccc(C)cc1 [TOLBUTAMIDE]
13

Give its PT value. Item: O=c1ccc2ccccc2o1 [COUMARIN]
12

Give its PT value. Item: CN(CCOc1ccc(CC2SC(=O)NC2=O)cc1)c1ccccn1.O=C(O)/C=C\C(=O)O (configuration not stated) [ROSIGLITAZONE MALEATE]
11.7

Give its PT value. Item: O=C(O)c1ccccc1Nc1ccccc1 [FENAMIC ACID]
13.8

Give its PT value. Item: CCN(CC)C(=S)SSC(=S)N(CC)CC
16.4

Give its PT value. Item: CC(S)C(=O)NCC(=O)O (configuration not stated) [TIOPRONIN]
15.4

Give its PT value. Item: CC(=O)[C@@]1(O)CC[C@H]2[C@@H]3C=C(Cl)C4=CC(=O)CC[C@]4(C)[C@H]3CC[C@@]21C [CHLORMADINONE]
15.6

Give its PT value. Item: Nc1ccc(Cc2ccc(N)cc2)cc1
11.4

###

- Organism: Rattus norvegicus
- run-description: Open TG-GATES - Regimen: Daily Repeat
- Format: toxicity, organism-based, Sprague-Dawley
- Design: regimen Daily Repeat, gender Male, age 6 weeks
- measurement-conditions: in vivo, po, 0 mg/kg, 72 h, tissue Blood, route gavage, dose level Control, time 3 day
measure: APTT (s)
Report the value in s with no unit label.

# annotated cases, reported APTT shown
| molecule | unit-spec | APTT |
| --- | --- | --- |
| CCN(CC)C(=S)SSC(=S)N(CC)CC | s | 22.7 |
| Nc1ccc(Cc2ccc(N)cc2)cc1 | s | 13.2 |
| CCCCNC(=O)NS(=O)(=O)c1ccc(C)cc1 [TOLBUTAMIDE] | s | 16.5 |

Give its APTT value. Item: CC(=O)[C@@]1(O)CC[C@H]2[C@@H]3C=C(Cl)C4=CC(=O)CC[C@]4(C)[C@H]3CC[C@@]21C [CHLORMADINONE]
23.6

Give its APTT value. Item: NS(=O)(=O)c1cc(C(=O)O)c(NCc2ccco2)cc1Cl [FUROSEMIDE]
15.8

Give its APTT value. Item: O=C(O)c1ccccc1Nc1ccccc1 [FENAMIC ACID]
16.2

Give its APTT value. Item: CN(CCOc1ccc(CC2SC(=O)NC2=O)cc1)c1ccccn1.O=C(O)/C=C\C(=O)O (configuration not stated) [ROSIGLITAZONE MALEATE]
15.5

Give its APTT value. Item: O=c1ccc2ccccc2o1 [COUMARIN]
16.2

Give its APTT value. Item: CCCCC1C(=O)N(c2ccccc2)N(c2ccccc2)C1=O [PHENYLBUTAZONE]
16.9

Give its APTT value. Item: CN(C/C=C/C#CC(C)(C)C)Cc1cccc2ccccc12 [TERBINAFINE]
18.4

Give its APTT value. Item: CC(S)C(=O)NCC(=O)O (configuration not stated) [TIOPRONIN]
22.6

Give its APTT value. Item: CCO [ALCOHOL]
17.2
